- measured-on: Ornithine decarboxylase (Mus musculus)
- assay-details: Impact on polyamine biosynthetic enzyme, Ornithine decarboxylase in L1210 cells treated with the compound for 4 hr.
- Format: cell-based
- Design: concentration or dose not given beside the values
readout-name: Control (%)

compound	readout-name	result-number
FC(F)(F)CNCCCNCCCCNCCCNCC(F)(F)F	Control	100
c1cc(CNCCCCNCc2ccncc2)ccn1	Control	90
CCNCCCNCCCCNCCCNCC [BIS(ETHYL)SPERMINE]	Control	3
c1cc(CCNCCCCNCCc2ccncc2)ccn1	Control	100
C(CCNCC1CCNCC1)CNCC1CCNCC1	Control	6

###

- assay-details: Titrimetrically measured pKa4 value of the compound
- Format: physicochemical
- condition: read-out: pKa4

compound	pKa
c1cc(CCNCCCCNCCc2ccncc2)ccn1	4.93
FC(F)(F)CNCCCNCCCCNCCCNCC(F)(F)F	4.09
C(CCNCC1CCNCC1)CNCC1CCNCC1	8.45
NCCCNCCCCNCCCN [SPERMINE]	7.95
c1cc(CNCCCCNCc2ccncc2)ccn1	3.77

The measurements presented in this section are drawn from ChEMBL document CHEMBL1128579.
